# system-name: recombinant integrase (HIV integrase) (Human immunodeficiency virus type 1 group M subtype B)
# protocol-summary: HIV integrase assay: strand transfer catalyzed by recombinant integrase
# applied-conditions: strand transfer activity
readout: IC50

(Q) Name the reported IC50 value associated with the compound CCCCC(C)C1=C(O)C(=O)C2CC(C)CC(C(=O)O)C2C1(C)C(=O)CCO (stereo not shown)
(A) ~20 µM
